Reported IC50 values are given for each entry in this list.
Target: hACSL5 (Homo sapiens (Human), UniProt Q9ULC5)
Experiment: Human ACSL5 coupled enzyme Amplex Red assay
Assay type: biochemical
Details: read-out: hACSL5 IC50
Sequence (Q9ULC5 33-683): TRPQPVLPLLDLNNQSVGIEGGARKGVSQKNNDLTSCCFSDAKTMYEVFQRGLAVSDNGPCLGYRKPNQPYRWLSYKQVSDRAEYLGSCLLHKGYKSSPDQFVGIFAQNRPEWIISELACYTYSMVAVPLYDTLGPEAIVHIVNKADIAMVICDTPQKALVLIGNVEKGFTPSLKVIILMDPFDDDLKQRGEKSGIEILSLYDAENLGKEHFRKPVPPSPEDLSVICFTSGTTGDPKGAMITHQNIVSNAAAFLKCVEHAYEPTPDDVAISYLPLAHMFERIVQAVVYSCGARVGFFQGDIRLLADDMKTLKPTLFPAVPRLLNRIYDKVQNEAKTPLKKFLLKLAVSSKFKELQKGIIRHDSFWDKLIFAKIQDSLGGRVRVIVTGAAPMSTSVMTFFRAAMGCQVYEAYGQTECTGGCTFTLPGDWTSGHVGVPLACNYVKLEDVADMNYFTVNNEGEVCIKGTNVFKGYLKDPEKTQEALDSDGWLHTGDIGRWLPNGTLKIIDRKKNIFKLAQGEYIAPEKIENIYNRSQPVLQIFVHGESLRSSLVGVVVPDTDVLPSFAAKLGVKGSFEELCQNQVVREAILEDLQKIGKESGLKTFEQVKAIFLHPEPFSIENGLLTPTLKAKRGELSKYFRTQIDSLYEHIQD

Take a look at these entries with their results.
CC[C@@H](Oc1ccc(C(=O)NS(=O)(=O)N2CCC(OC3CCN(CCOC)CC3)CC2)c(F)c1F)c1ccc(Oc2ccccn2)cn1; < 100 nM
CC[C@@H](Oc1ccc(C(=O)NS(=O)(=O)N2CCN(C)CC2)c(F)c1F)c1cc(Oc2ccccn2)ccn1; < 100 nM
CC[C@@H](Oc1ccc(C(=O)NS(=O)(=O)c2ccc(OC3CCN(C)CC3)cc2)c(F)c1F)c1ccc(OCCOC)cn1; > 500 nM

Now turn to the next compound.
Provide the reported IC50 (system: hACSL5 (Homo sapiens (Human), UniProt Q9ULC5)) for CC[C@@H](Oc1ccc(C(=O)NS(=O)(=O)c2ccc(OCCN3CCN(C)CC3)cc2)c(F)c1F)c1ccc(OCC2CC2)cn1
< 100 nM

----------
Reported pIC50 values are given for each entry in this list.
Target: hACSL5 (Homo sapiens (Human), UniProt Q9ULC5)
Test: Cell-based assay (CBA) with B12FA in hACSL5-transfected Expi293F / FlpIn TRex293 cells
Conditions: hACSL5-expressing cells
Sequence (Q9ULC5 whole entry): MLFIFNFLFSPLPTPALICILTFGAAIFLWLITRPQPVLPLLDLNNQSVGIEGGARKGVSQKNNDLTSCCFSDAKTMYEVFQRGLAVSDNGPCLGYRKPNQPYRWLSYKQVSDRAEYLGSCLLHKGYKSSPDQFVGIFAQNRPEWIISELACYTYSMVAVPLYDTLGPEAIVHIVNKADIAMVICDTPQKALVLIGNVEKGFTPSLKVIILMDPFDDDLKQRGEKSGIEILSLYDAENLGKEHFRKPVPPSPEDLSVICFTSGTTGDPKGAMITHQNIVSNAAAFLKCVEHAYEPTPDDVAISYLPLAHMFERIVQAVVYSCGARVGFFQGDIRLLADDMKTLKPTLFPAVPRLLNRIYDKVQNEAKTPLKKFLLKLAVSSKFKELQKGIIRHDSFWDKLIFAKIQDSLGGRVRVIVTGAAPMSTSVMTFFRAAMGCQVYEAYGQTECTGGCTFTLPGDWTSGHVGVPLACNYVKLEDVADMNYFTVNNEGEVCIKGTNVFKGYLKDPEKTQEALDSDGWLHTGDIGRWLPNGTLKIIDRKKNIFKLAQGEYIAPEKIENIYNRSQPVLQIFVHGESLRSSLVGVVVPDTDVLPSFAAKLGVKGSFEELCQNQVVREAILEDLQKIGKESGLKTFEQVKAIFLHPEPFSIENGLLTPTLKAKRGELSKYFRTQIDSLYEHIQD
pIC50: −log10 of the molar value.

Take a look at these entries with their results.
CC[C@@H](Oc1ccc(C(=O)NS(=O)(=O)c2ccc(OC3CCN(CC)CC3)cc2)c(F)c1F)c1ccc(OCC2CC2)cn1; > 7.00
CC[C@@H](Oc1ccc(C(=O)NS(=O)(=O)N2CCC(OC3CCN(CC4CC4)CC3)CC2)c(F)c1F)c1ccc(OCC2CC2)cn1; 6.30 to 7.00
CC[C@@H](Oc1ccc(C(=O)NS(=O)(=O)N2CCC(OC3CCN(CCOC)CC3)CC2)c(F)c1F)c1ccc(Oc2ccccn2)cn1; > 7.00
CC[C@@H](Oc1ccc(C(=O)NS(=O)(=O)N2CCC(OCCN(C)C)CC2)c(F)c1F)c1ccc(OCC2CC2)cn1; 6.30 to 7.00
CC[C@@H](Oc1ccc(C(=O)NS(=O)(=O)c2ccc(O[C@@H]3C[C@H]4C[C@@H]3CN4C)cc2)c(F)c1F)c1ccc(OCC2CC2)cn1; < 6.30
CC[C@@H](Oc1ccc(C(=O)NS(=O)(=O)c2ccc(NC3CCN(C)CC3)nc2)c(F)c1F)c1ccc(OCC2CC2)cn1; < 6.30

Answer with the recorded pIC50 of CCOc1ccc(C(C)Oc2ccc(C(=O)NS(=O)(=O)c3ccc(OCCn4ccnc4)cc3)c(F)c2F)nc1 (centres unmarked) only.
< 6.30

Answer with the recorded pIC50 of CC[C@@H](Oc1ccc(C(=O)NS(=O)(=O)c2ccc(OC3CCN(C)CC3)nn2)c(F)c1F)c1ccc(OCC2CC2)cn1 only.
< 6.30

Answer with the recorded pIC50 of CC[C@@H](Oc1ccc(C(=O)NS(=O)(=O)N2CCN(C3CC3)CC2)c(F)c1F)c1ccc(Oc2ccccn2)cn1 only.
> 7.00

----------
Biological target: hACSL5 (Homo sapiens (Human))
Test: Human ACSL5 coupled enzyme Amplex Red assay
Assay type: biochemical
Conditions: read-out: hACSL5 IC50
pIC50: −log10 of the molar value.
RESULT_TYPE: pIC50

Take a look at these entries with their results.
CC[C@@H](Oc1ccc(C(=O)NS(=O)(=O)c2ccc(OCCN(C)C)cc2)c(F)c1F)c1ccc(Oc2ccccn2)cn1; > 7.00
CC[C@@H](Oc1ccc(C(=O)NS(=O)(=O)c2ccc(OC3CCN(C)CC3)nn2)c(F)c1F)c1ccc(OCC2CC2)cn1; > 7.00
CC(Oc1ccc(C(=O)NS(=O)(=O)c2ccc(CN)cc2)cc1C(F)(F)F)c1cccc(Oc2cnn(C)c2)c1 (stereo not drawn); < 6.30
CC[C@@H](Oc1ccc(C(=O)NS(=O)(=O)N2C[C@H]3C[C@@H]2CN3C)c(F)c1F)c1ccc(OCC2CC2)cn1; 6.30 to 7.00
CC[C@@H](Oc1ccc(C(=O)NS(=O)(=O)N2CCC(OCCN(C)C)CC2)c(F)c1F)c1ccc(OCC2CC2)cn1; > 7.00

Answer with the recorded pIC50 of CC[C@@H](Oc1ccc(C(=O)NS(=O)(=O)C2CCN(C)CC2)c(F)c1F)c1ccc(Oc2ccccn2)cn1 only.
> 7.00

Answer with the recorded pIC50 of CC[C@@H](Oc1ccc(C(=O)NS(=O)(=O)N2CC3(CC(OCCN(C)C)C3)C2)c(F)c1F)c1ccc(OCC2CC2)cn1 only.
6.30 to 7.00

Answer with the recorded pIC50 of CC[C@@H](Oc1ccc(C(=O)NS(=O)(=O)N2CCN(C3CC3)CC2)c(F)c1F)c1cc(Oc2ccccn2)ccn1 only.
> 7.00

Answer with the recorded pIC50 of CC[C@@H](Oc1ccc(C(=O)NS(=O)(=O)c2ccc(OCCN3CCOCC3)cc2)c(F)c1F)c1ccc(OCC2CC2)cn1 only.
> 7.00

Answer with the recorded pIC50 of CC[C@@H](Oc1ccc(C(=O)NS(=O)(=O)N2CCC(OCCN(C)C)CC2)c(F)c1F)c1ccc(Oc2ccccn2)cn1 only.
> 7.00
